System: HL-60(TB) leukemia
Test: NCI tumour cell line growth inhibition, 48 h
# maps each entry to its TGI
Please respond with the number in µM and leave the unit unwritten.

// worked examples, TGI included
- CC1=C(C(=O)Nc2ccc(C)cc2)C(c2cccc([N+](=O)[O-])c2)C(C(=O)Nc2ccc(C)cc2)=C(C)N1: 39.4
- C[C@]12CC[C@H]3[C@@H](CC[C@]4(O)C[C@@H](O[C@@H]5O[C@H](CO)[C@@H](O[C@@H]6OC[C@@H](O)[C@H](O)[C@H]6O)[C@H](O)[C@H]5O)CC[C@]34C=O)[C@@]1(O)CC[C@@H]2C1=CC(=O)OC1: 3.08
- CC(C)c1c(O[Si](C(C)C)(C(C)C)C(C)C)cc2c(c1O)CC[C@H]1C(C)(C)CCC[C@]21C: 60.4
- Cc1ccc(S(=O)(=O)Nn2c(S)c(C#N)c(-c3ccc(Cl)cc3)c(C#N)c2=O)cc1: 65.8

-- ask Fill in: TGI of c1ccc(CC(Nc2cccnc2)c2ccccc2)cc1 (configuration not stated) is ___
-- reply 50.1

-- ask Return reported TGI; argument: COc1ccc(-c2cc(=O)c3cc(O)ccc3o2)c(OC)c1OC
-- reply 37.2
